target: phosphorylated EGFR (pEGFR) (Homo sapiens); construct: performed to measure phosphorylated EGFR levels using A431 cells (10% FBS); endogenous in cells; host or cells: A431; test: Detection of phosphorylated EGFR (pEGFR) by AlphaLISA in EGF-stimulated A431 cells; assay type: cell-based; details: A431 cells (10% FBS), 4 hours incubation, EGF 30 ng/mL for 10 minutes
Sequence (P00533 25-1210): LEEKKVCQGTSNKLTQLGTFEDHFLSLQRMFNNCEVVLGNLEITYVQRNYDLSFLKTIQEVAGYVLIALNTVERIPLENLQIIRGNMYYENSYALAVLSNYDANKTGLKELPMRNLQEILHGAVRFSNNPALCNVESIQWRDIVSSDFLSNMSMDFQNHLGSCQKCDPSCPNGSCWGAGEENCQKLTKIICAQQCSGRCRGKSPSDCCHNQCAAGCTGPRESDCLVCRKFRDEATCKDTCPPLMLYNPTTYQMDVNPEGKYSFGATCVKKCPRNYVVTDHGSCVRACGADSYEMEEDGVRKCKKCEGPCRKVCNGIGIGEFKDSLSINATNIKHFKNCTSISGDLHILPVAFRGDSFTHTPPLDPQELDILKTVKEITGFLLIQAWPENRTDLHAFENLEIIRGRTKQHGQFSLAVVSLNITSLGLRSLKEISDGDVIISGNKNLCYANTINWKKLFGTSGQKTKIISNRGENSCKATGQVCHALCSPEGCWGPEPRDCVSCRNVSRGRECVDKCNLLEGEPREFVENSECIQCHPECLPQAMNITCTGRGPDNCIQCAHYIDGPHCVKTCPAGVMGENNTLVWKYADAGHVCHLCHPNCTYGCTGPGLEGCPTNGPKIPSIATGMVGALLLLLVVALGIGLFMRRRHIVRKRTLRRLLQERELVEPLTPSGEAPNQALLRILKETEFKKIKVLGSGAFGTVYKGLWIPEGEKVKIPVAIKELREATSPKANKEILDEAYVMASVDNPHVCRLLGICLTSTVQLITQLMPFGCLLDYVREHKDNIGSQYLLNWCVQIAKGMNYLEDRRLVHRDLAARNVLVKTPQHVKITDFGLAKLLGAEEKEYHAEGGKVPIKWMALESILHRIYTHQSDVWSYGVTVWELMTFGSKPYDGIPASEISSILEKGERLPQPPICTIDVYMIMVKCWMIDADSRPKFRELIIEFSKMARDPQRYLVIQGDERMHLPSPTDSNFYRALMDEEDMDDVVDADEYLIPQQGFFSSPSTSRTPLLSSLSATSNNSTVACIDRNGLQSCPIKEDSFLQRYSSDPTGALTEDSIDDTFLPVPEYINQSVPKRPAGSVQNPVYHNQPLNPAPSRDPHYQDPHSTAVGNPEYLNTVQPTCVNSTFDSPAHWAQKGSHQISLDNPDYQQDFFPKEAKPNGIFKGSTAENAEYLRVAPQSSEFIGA
pIC50: −log10 of the molar value.
METRIC NAME: pIC50

CHEMICAL STRUCTURE	MEASURED ON	pIC50
Cc1cc(Nc2ncnc3ccc4c(c23)OC[C@@H]2CN(C(=O)/C=C/CN(C)C)CCN42)ccc1Oc1ccc2c(c1)ncn2C	phosphorylated EGFR (pEGFR) (Homo sapiens)	6.09

[I] Cc1cc(Nc2ncnc3ccc4c(c23)O[C@@H]2CCNC[C@@H]2N4C)ccc1Oc1ccc2c(c1)ncn2C
[II] Cc1c(Oc2ccn3ncnc3c2)ccc(Nc2ncnc3ccc4c(c23)OC[C@@H]2CN(C(=O)/C=C/CN(C)C)CCN42)c1F
Qu. Select the item whose pIC50 value is smaller, choosing between I and II . Pick one; state its label.
Ans. I
(I: 6.14, II: 6.51)

====

biological target: phosphorylated ERBB2 (pERBB2) (Homo sapiens, UniProt P04626); construct: endogenous in cells; assay: Detection of phosphorylated ERBB2 (pERBB2) by ELISA in BT-474 cells; settings: four hour incubation
Sequence (P04626 23-1255): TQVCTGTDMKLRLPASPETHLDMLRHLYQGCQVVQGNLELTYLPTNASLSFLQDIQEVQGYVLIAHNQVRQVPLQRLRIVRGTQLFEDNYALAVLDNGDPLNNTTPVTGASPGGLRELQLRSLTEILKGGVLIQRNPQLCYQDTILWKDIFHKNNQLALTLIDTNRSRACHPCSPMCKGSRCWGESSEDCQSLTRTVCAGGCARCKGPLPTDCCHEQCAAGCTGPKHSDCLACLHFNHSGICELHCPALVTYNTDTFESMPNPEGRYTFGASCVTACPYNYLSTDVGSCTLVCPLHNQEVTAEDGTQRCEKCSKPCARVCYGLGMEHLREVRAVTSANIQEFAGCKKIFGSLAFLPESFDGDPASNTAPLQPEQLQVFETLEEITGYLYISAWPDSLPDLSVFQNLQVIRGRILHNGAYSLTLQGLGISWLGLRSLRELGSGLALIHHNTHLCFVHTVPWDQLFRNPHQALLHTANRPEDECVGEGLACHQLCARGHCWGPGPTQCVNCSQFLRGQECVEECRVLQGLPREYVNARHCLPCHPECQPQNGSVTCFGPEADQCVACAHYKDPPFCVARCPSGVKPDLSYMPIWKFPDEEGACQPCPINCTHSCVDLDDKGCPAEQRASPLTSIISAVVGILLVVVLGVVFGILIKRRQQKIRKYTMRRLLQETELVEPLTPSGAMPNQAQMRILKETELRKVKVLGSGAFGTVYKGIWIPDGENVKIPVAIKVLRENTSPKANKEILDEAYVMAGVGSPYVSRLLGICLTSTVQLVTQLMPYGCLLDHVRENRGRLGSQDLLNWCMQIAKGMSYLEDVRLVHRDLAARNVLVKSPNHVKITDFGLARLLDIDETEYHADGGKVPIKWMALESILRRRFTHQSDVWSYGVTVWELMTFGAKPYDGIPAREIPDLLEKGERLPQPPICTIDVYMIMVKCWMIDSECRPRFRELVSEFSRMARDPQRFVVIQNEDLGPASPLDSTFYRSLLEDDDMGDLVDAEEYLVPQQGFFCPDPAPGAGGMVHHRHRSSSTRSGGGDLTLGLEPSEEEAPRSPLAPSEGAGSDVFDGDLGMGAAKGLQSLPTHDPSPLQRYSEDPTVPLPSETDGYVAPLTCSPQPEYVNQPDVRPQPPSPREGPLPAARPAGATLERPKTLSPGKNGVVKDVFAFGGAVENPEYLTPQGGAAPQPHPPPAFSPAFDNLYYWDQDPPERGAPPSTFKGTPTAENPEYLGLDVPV
pIC50: −log10 of the molar value.
METRIC NAME: pIC50

COMPOUND	pIC50
Fc1cc(Oc2ccn3ncnc3c2)ccc1Nc1ncnc2ccc3c(c12)OC[C@H]1COCCN31	6.30
C=CC(=O)N1CCN2c3ccc4ncnc(Nc5ccc(Oc6ccc7c(c6)ncn7C)c(C)c5)c4c3OC[C@H]2C1	7.56
Cc1cc(Nc2ncnc3ccc4c(c23)OC[C@@H]2CNCCN42)ccc1Oc1ccn2ncnc2c1	7.12
Cc1c(Oc2ccn3ncnc3c2)ccc(Nc2ncnc3cc4c(nc23)N2CCOC[C@H]2CO4)c1F	6.59
Cc1cc(Nc2ncnc3cc4c(nc23)N2CCNC[C@@H]2CO4)ccc1Oc1ccc2c(c1)ncn2C	6.55
CCN1CCN2c3nc4c(Nc5ccc(Oc6ccn7ncnc7c6)c(C)c5)ncnc4cc3OC[C@@H]2C1	7.02

[a] Cc1cc(Nc2ncnc3ccc4c(c23)OC[C@H]2CN4CCN2C)ccc1Oc1ccn2ncnc2c1
[b] Cc1cc(Nc2ncnc3ccc4c(c23)O[C@H]2CCN(C)C[C@@H]2N4)ccc1Oc1ccc2c(c1)ncn2C (relative stereo)
[c] Cc1cc(Nc2ncnc3ccc4c(c23)OC[C@H]2COCCN42)ccc1Oc1ccn2ncnc2c1
[d] Cc1cc(Nc2ncnc3ccc4c(c23)OC[C@H]2CN(C(=O)/C=C/CN(C)C)CCN42)c(F)cc1Oc1ccn2ncnc2c1
[e] Cc1cc(Nc2ncnc3ccc4c(c23)OC[C@H]2CN(C)CCN42)ccc1Oc1ccn2ncnc2c1
Qu. Parameters: sort_field (pIC50), sort_dir (desc). Present the labels in the sequence the task asks for.
Ans. d, c, e, b, a
(d: 7.96, c: 7.76, e: 7.50, b: 7.21, a: 6.66)

====

Target: Ba/F3 ERBB2 YVMA (Homo sapiens, UniProt P04626, DUP772-775, cells depend on it)
Sequence (P04626 with tags, fused parts or gaps DUP772-775): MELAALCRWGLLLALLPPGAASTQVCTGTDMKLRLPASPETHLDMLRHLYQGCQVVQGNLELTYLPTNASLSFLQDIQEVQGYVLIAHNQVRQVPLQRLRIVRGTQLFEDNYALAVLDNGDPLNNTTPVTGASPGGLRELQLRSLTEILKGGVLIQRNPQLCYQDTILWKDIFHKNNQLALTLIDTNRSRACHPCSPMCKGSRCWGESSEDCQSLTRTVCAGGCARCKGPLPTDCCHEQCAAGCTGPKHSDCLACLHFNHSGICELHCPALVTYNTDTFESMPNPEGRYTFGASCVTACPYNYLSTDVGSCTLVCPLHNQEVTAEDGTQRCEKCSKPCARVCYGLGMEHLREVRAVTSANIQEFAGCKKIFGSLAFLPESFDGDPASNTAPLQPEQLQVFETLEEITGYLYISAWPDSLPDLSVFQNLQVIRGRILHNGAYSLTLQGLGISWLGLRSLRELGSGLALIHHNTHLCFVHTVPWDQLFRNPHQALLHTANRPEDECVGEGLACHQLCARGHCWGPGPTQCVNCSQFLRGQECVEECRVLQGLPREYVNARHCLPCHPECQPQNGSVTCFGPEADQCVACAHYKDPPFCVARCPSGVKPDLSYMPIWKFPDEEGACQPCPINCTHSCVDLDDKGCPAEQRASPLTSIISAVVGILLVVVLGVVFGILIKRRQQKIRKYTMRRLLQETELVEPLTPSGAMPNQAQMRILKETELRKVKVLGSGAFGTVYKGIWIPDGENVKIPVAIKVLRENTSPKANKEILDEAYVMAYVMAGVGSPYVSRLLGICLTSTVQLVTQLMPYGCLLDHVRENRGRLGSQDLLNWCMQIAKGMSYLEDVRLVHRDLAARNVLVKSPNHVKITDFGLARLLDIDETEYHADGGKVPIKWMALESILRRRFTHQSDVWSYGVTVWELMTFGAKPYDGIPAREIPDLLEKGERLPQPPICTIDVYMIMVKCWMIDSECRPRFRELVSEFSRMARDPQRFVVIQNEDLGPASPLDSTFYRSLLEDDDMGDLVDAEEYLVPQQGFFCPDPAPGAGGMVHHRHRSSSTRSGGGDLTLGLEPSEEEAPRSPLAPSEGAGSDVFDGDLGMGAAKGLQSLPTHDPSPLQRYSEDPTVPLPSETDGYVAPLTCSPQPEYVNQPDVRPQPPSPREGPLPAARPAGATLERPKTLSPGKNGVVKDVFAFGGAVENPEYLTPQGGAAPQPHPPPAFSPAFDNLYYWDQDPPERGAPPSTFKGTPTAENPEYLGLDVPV
Assay: Cell viability assay (CellTiter Glo), Ba/F3 cells engineered to express ERBB2 YVMA
Assay type: cell-based, mouse
Settings: Ba/F3 cells expressing human ERBB2 YVMA mutant, 72 hours, read-out: Ba/F3 ERBB2 YVMA, IC50
Experimental: Cells were treated with compounds, and cell viability was measured as a metric of kinase inhibition. BT-474, A431, MDA-MB-175VII, NCI-H1781, MCF7, and Ba/F3 cell lines were tested. […] Plates were placed in a 37° C., 5% CO2 incubator for 72 hours. […] 40 μl of CellTiter Glo reagent (Promega) was added to measure the relative level of metabolically active cells by quantifying intracellular ATP concentrations. Plates were incubated for 30 minutes at room temperature, and luminescence was measured. […]
METRIC NAME: GI50 (nM)
Give just the number in nM; leave the unit off.

Here's what some known entries look like.
COMPOUND	GI50 (nM)
Cc1cc(Nc2ncnc3ccc4c(c23)O[C@H]2CCN(C)C[C@H]2N4)ccc1Oc1ccc2c(c1)ncn2C	164
C=CC(=O)N1CCN2c3ccc4ncnc(Nc5ccc(Oc6ccn7ncnc7c6)c(C)c5)c4c3OC[C@@H]2C1	4.62
C=CC(=O)N1CCN2c3nc4c(Nc5ccc(Oc6ccc7c(c6)ncn7C)c(C)c5)ncnc4cc3OC[C@H]2C1	13.3

Reported GI50 of Cc1cc(Nc2ncnc3cc4c(nc23)N2CCNC[C@H]2CO4)ccc1Oc1ccn2ncnc2c1 : 474

The measured GI50 associated with Cc1cc(Nc2ncnc3cnc4c(c23)OC[C@H]2CN(C)CCN42)ccc1Oc1cc2ncn(C)c2cn1 reads 211
